Target: human GPR119 receptor (Homo sapiens, UniProt Q8TDV5, S329A/T327A)
Construct: N-terminal leader […]; expressed in transfected cells
Sequence (Q8TDV5 with tags, fused parts or gaps T327A/S329A): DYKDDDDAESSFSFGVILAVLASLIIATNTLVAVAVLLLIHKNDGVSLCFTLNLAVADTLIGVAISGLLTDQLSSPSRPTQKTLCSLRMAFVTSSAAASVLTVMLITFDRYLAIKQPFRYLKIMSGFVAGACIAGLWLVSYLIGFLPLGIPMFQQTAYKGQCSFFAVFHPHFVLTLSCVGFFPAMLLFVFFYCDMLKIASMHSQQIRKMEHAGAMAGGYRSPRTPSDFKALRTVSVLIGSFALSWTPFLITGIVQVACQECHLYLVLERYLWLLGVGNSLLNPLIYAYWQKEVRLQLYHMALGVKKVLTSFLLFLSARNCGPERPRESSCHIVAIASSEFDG
Test: cAMP assay (LANCE cAMP-384) in HEK293 cells stably expressing mutant human GPR119 receptor
Assay type: cell-based
Details: cAMP accumulation, HEK293 cells stably expressing mutant human GPR119; read-out: EC50
Below is a list of entries, each paired with its recorded log10 EC50 value.
quantity_measured: log10 EC50 (log10 of the value in nM)

> print(dat)
                                   molecule                       experimental.system  quantity.measured  measured
1  CC(C)OC(=O)N1CCC(ON=C2CCN(c3cc(F)c(-c4c[nH]cn4)cc3F)CC2)CC1 [Example 27-14]  human GPR119 receptor (Homo sapiens, UniProt Q8TDV5, S329A/T327A)         log10 EC50      2.18
2  CC(C)OC(=O)N1CCC(ON=C2CCN(c3cc(F)c(CNCCC(=O)O)cc3F)CC2)CC1 [Example 7-1]  human GPR119 receptor (Homo sapiens, UniProt Q8TDV5, S329A/T327A)         log10 EC50      3.06
3  CC(C)OC(=O)N1CCC(ON=C2CCN(c3ccc(C=O)cc3Cl)CC2)CC1 [Example 2-31]  human GPR119 receptor (Homo sapiens, UniProt Q8TDV5, S329A/T327A)         log10 EC50      3.10
4  CC(C)OC(=O)N1CCC(ON=C2CCN(c3ncnc4ccsc34)CC2)CC1 [Example 2-15]  human GPR119 receptor (Homo sapiens, UniProt Q8TDV5, S329A/T327A)         log10 EC50      3.68
5  CCOC(=O)c1cnn(Cc2cc(F)c(N3CCC(=NOC4CCN(C(=O)OC(C)C)CC4)CC3)cc2F)c1 [Example 14-11]  human GPR119 receptor (Homo sapiens, UniProt Q8TDV5, S329A/T327A)         log10 EC50      2.28
6  CC(C)OC(=O)N1CCC(ON=C2CCN(c3nc(Cl)c(CO)nc3Cl)CC2)CC1 [Example 56-1]  human GPR119 receptor (Homo sapiens, UniProt Q8TDV5, S329A/T327A)         log10 EC50      1.54
7  CC(C)OC(=O)N1CCC(ON=C2CCN(c3cc(F)c(Cn4nccn4)cc3F)CC2)CC1 [Example 14-13]  human GPR119 receptor (Homo sapiens, UniProt Q8TDV5, S329A/T327A)         log10 EC50      1.20
